// provenance: PubChem BioAssay

# measured.target: Pantothenate synthetase (Mycobacterium tuberculosis (strain ATCC 25618 / H37Rv))
# measurement.description: Coupled enzyme confirmation of inhibitors against recombinant Mtb PanC (AID 375);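 note: 0% = full reaction with vehicle and 100% = no enzyme background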
# measurement.setup: coupled enzyme assay; at 10 µM, active compounds read high
inhibition: recorded values
endpoint: inhibition (%)

- molecule: "OCCn1c(CSc2nnc(-c3ccco3)n2-c2ccccc2)nc2ccc(Cl)cc21"
  measured.target: "Pantothenate synthetase (Mycobacterium tuberculosis (strain ATCC 25618 / H37Rv))"
  quantity.unit: "%"
  measured.value: 2
- molecule: "COc1cccc(C2=Nn3c(nnc3-c3ccccc3O)SC2)c1"
  measured.target: "Pantothenate synthetase (Mycobacterium tuberculosis (strain ATCC 25618 / H37Rv))"
  quantity.unit: "%"
  measured.value: 1
- molecule: "CCOC(=O)c1nc2sc3c(c2c(=O)[nH]1)CCCC3"
  measured.target: "Pantothenate synthetase (Mycobacterium tuberculosis (strain ATCC 25618 / H37Rv))"
  quantity.unit: "%"
  measured.value: 0
- molecule: "C=CCNC(=O)CSc1nc2sc(C)c(C)c2c(=O)[nH]1"
  measured.target: "Pantothenate synthetase (Mycobacterium tuberculosis (strain ATCC 25618 / H37Rv))"
  quantity.unit: "%"
  measured.value: 0
- molecule: "O=C(Nc1ccc(N2C(=O)C3C4C=CC(C4)C3C2=O)cc1)Nc1nncs1 (stereo unspecified)"
  measured.target: "Pantothenate synthetase (Mycobacterium tuberculosis (strain ATCC 25618 / H37Rv))"
  quantity.unit: "%"
  measured.value: 5
- molecule: "CCN(CC)C(=O)CSc1nnc(-c2cc(OC)cc(OC)c2)o1"
  measured.target: "Pantothenate synthetase (Mycobacterium tuberculosis (strain ATCC 25618 / H37Rv))"
  quantity.unit: "%"
  measured.value: 0
- molecule: "Cc1ccccc1-c1nc(Cc2ccccc2)no1"
  measured.target: "Pantothenate synthetase (Mycobacterium tuberculosis (strain ATCC 25618 / H37Rv))"
  quantity.unit: "%"
  measured.value: 1
- molecule: "CC1CCN(C(=O)c2cc(-c3ccc(Cl)c(Cl)c3)on2)CC1"
  measured.target: "Pantothenate synthetase (Mycobacterium tuberculosis (strain ATCC 25618 / H37Rv))"
  quantity.unit: "%"
  measured.value: 3
- molecule: "c1coc(CN(Cc2cccs2)Cc2nnnn2C2CCCCC2)c1"
  measured.target: "Pantothenate synthetase (Mycobacterium tuberculosis (strain ATCC 25618 / H37Rv))"
  quantity.unit: "%"
  measured.value: 0
- molecule: "CCOC(=O)N1CCN(c2c(NCC3CCN(Cc4cccc(C)c4)CC3)c(=O)c2=O)CC1"
  measured.target: "Pantothenate synthetase (Mycobacterium tuberculosis (strain ATCC 25618 / H37Rv))"
  quantity.unit: "%"
  measured.value: 4
- molecule: "COCCn1nnnc1C(c1ccccc1OC)N1CCc2ccccc2C1 (stereo unspecified)"
  measured.target: "Pantothenate synthetase (Mycobacterium tuberculosis (strain ATCC 25618 / H37Rv))"
  quantity.unit: "%"
  measured.value: 0

###

# measured.target: Pantothenate synthetase (Mycobacterium tuberculosis (strain ATCC 25618 / H37Rv)) (UniProt P9WIL5)
# Sequence (P9WIL5 whole entry, looked up): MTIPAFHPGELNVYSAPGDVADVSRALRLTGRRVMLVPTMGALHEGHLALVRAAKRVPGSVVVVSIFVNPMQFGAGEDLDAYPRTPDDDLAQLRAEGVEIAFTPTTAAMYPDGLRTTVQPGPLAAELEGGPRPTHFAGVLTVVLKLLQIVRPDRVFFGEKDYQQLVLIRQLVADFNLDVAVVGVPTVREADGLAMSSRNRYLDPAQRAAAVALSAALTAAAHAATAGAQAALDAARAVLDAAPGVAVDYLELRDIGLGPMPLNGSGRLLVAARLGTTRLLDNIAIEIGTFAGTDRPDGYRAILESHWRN
# measurement.description: Coupled enzyme confirmation of inhibitors against recombinant Mtb PanC (AID 375);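 note: 0% = full reaction with vehicle and 100% = no enzyme background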
# measurement.setup: coupled enzyme assay; at 10 µM, active compounds read high
inhibition: recorded values
endpoint: inhibition (%)

- compound: "CC(=O)Nc1ccc(Oc2ccc3nc(C)[nH]c3c2)cc1"
  measured.value: 0
- compound: "C=CCn1c(SCC(=O)Nc2ccccc2OC)nnc1-c1ccco1"
  measured.value: 4
- compound: "Cc1ccc(C(=O)N2CCN(C(=O)c3ccc(C)c(C)c3)C(C)C2)cc1C (centres undefined)"
  measured.value: 7
- compound: "CC(=O)SCCC(=O)Nc1ccccc1"
  measured.value: 0
- compound: "O=S(=O)(c1ccc(F)c(Cl)c1)N1CCCC1"
  measured.value: 0
- compound: "Cc1nnc(SCC(=O)Nc2nccs2)s1"
  measured.value: 0
- compound: "COCc1cc(=O)[nH]c(Nc2nc3ccccc3o2)n1"
  measured.value: 0
- compound: "COc1cccc(Nc2nc(=O)[nH]nc2C)c1"
  measured.value: 8
- compound: "CC1CCCCC1NC(=O)CCCc1nc2ccccc2c(=O)[nH]1 (centres undefined)"
  measured.value: 0
- compound: "COc1ccc(N2CCN(CCCN)CC2)cc1"
  measured.value: 0
- compound: "CCOC(=O)NC1(NCc2ccccc2)Oc2ccccc2O1"
  measured.value: 0
- compound: "Cc1cccc2sc(NC(=O)CN(C)S(=O)(=O)c3cccs3)nc12"
  measured.value: 2
- compound: "Cc1nn(Cc2ccc(C(=O)NC3CCCCC3)o2)c(C)c1Br"
  measured.value: 2
- compound: "CC(C)OC(=O)c1cc(=O)[nH]c2ccccc12"
  measured.value: 0
- compound: "CCCN(CCC)C(=O)C(CCC(=O)O)NC(=O)c1ccccc1 (centres undefined)"
  measured.value: 0
- compound: "CCCn1c(SCC(=O)Nc2ccccc2C(=O)OC)nc2c1c(=O)n(C)c(=O)n2C"
  measured.value: 3
- compound: "CCOC(=O)c1c(NCc2ccc3c(c2)OCO3)c2ccccc2[nH]c1=O"
  measured.value: 0
- compound: "O=C1C2CCCN2C(c2ccc(Cl)c(Cl)c2)N1c1ccccn1 (centres undefined)"
  measured.value: 0
- compound: "COC(=O)c1ccc(CSc2nnc(-c3ccncc3)o2)o1"
  measured.value: 0
- compound: "CCOC(=O)N1CCN(c2c(N3CCN(c4ccccc4OC)CC3)c(=O)c2=O)CC1"
  measured.value: 0
- compound: "O=c1c2[nH]c3ccccc3c2ncn1CCCn1ccnc1"
  measured.value: 0
- compound: "CC1CCc2nn(CC(=O)NCCN3CCOCC3)cc2C1 (centres undefined)"
  measured.value: 0
- compound: "Cc1cc(NC(=O)CSc2nc(C3CC3)nc3sc4c(c23)CCC(C)C4)no1 (centres undefined)"
  measured.value: 6
- compound: "CCN(CC)S(=O)(=O)c1ccc(F)c(C(=O)NCCC(C)C)c1"
  measured.value: 2

###

inhibition: recorded values
# measured.target: Pantothenate synthetase (Mycobacterium tuberculosis (strain ATCC 25618 / H37Rv)) (UniProt P9WIL5)
# measurement.description: Coupled enzyme confirmation of inhibitors against recombinant Mtb PanC (AID 375);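 note: 0% = full reaction with vehicle and 100% = no enzyme background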
# measurement.setup: coupled enzyme assay; at 10 µM, active compounds read high
The source made the active and inactive calls. No rule for the calls is given here.

- compound: "O=C(COC(=O)c1cc(S(=O)(=O)N2CCOCC2)cs1)c1ccccc1"
  inhibition: "0% (inactive)"
- compound: "Cc1cccc(C)c1NC(=O)C1CCCCN1C (stereo unspecified)"
  inhibition: "0% (inactive)"
- compound: "O=C(O)C1CCCN(S(=O)(=O)c2ccc(Cl)s2)C1 (stereo unspecified)"
  inhibition: "2% (inactive)"
- compound: "O=C1CNCc2[nH]c3ccccc3c2N1c1ccccc1"
  inhibition: "0% (inactive)"
- compound: "Brc1cccc(-c2cnc3n2CCCCC3)c1"
  inhibition: "4% (inactive)"
- compound: "COc1ccc(CCn2c(C)cc(C(=O)CSc3nnnn3C)c2C)cc1"
  inhibition: "0% (inactive)"
- compound: "CCC(Sc1ncccc1C(=O)O)C(=O)N1CCCC1 (stereo unspecified)"
  inhibition: "0% (inactive)"
- compound: "Cc1noc(C)c1CSc1nnc2n(-c3ccccc3)c(=O)c3ccccc3n12"
  inhibition: "0% (inactive)"
- compound: "CCOc1ccc(OCC)c(NC(=O)CCCN2C(=O)c3cccnc3C2=O)c1"
  inhibition: "0% (inactive)"
- compound: "OCCN1CCN(CCCN2c3ccccc3Sc3ccc(C(F)(F)F)cc32)CC1"
  inhibition: "2% (inactive)"
- compound: "CC(C)C(c1nnnn1CC1CCCO1)N1CCN(Cc2ccc3c(c2)OCO3)CC1 (stereo unspecified)"
  inhibition: "0% (inactive)"

###

# measurement.description: doxorubicin toxicity protection in MRP-1 cells – H69AR cells, CellTiter-Glo, duplicate, MRP-1 activator project, pilot screen (AID 807);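 note: compound pretreatment 18-22 h then 72 h combined with doxorubicin; 0% = doxorubicin alone and 100% = vehicle without doxorubicin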
# measurement.setup: H69AR viability with doxorubicin, CellTiter-Glo luminescence; at 10 µM; active compounds read high
viability increase: recorded values
endpoint: viability increase (%)

- compound: "OC12CCCCC1C(c1ccccc1)NCC2 (centres undefined)"
  endpoint: "viability increase"
  measured.value: -2.28
- compound: "O=C(Cc1ccccc1)Oc1cccc(N2C(=O)CCC2=O)c1"
  endpoint: "viability increase"
  measured.value: -0.69
- compound: "CC12CNCC(C)(CNC1)C2O (centres undefined)"
  endpoint: "viability increase"
  measured.value: -0.15
- compound: "CCOC(=O)c1c(C)n(Cc2ccccc2)c2ccc(OCC(O)Cn3nc(C)nc3C)cc12 (centres undefined)"
  endpoint: "viability increase"
  measured.value: -0.16
- compound: "C=CCOC(=O)COc1cc(C)cc2oc(=O)c3c(c12)CCC3"
  endpoint: "viability increase"
  measured.value: -0.23
- compound: "CC(=O)Nc1ccc(OC(=O)c2ccccc2N)cc1"
  endpoint: "viability increase"
  measured.value: 1.42
- compound: "CN(C)C(=O)Oc1ccc(C(=O)c2ccccc2)cc1"
  endpoint: "viability increase"
  measured.value: 1.59
- compound: "CN1CSC(=S)N(C)C1"
  endpoint: "viability increase"
  measured.value: -7.69
- compound: "COc1cccc(N2C(=O)CC(=O)NC2=O)c1"
  endpoint: "viability increase"
  measured.value: -0.55
- compound: "Cn1cc(C(=O)c2ccccc2)c2ccccc21"
  endpoint: "viability increase"
  measured.value: -1.92
- compound: "CC12CN3CC(C)(CN(C1)P3(=O)Oc1ccccc1)C2=O (centres undefined)"
  endpoint: "viability increase"
  measured.value: -0.06
- compound: "CN(C)C1(c2nnnn2-c2ccc(Cl)cc2)CCCCC1"
  endpoint: "viability increase"
  measured.value: 0.76
- compound: "CC(=O)c1cccc(NC2=NCC(C)S2)c1 (centres undefined)"
  endpoint: "viability increase"
  measured.value: -0.51
- compound: "Cn1c(O)c(C=Nc2ccc(Cl)cc2)c(=O)n(C)c1=O"
  endpoint: "viability increase"
  measured.value: -0.57
- compound: "O=C(Cc1ccc(Br)cc1)N1CCN(Cc2ccccc2)CC1"
  endpoint: "viability increase"
  measured.value: -1.69
- compound: "Cc1cccc(N2CCc3c2nc2ccccc2c3N)c1"
  endpoint: "viability increase"
  measured.value: -6.21
- compound: "COCCOC(=O)C1=C(N)OC(C)=C(C(=O)OC)C12C(=O)Nc1ccccc12 (centres undefined)"
  endpoint: "viability increase"
  measured.value: -4.28
- compound: "Cc1nc2ccc(Cl)cn2c1P(=S)(N1CCOCC1)N1CCOCC1"
  endpoint: "viability increase"
  measured.value: -2.81
- compound: "COc1ccc(CC2C(=O)NC(=O)N(c3ccccc3)C2=O)c(OC)c1 (centres undefined)"
  endpoint: "viability increase"
  measured.value: -1.2
- compound: "Cc1cc(Br)ccc1N1C(=O)CC(=O)NC1=O"
  endpoint: "viability increase"
  measured.value: -0.25
- compound: "O=C(CN1CC(c2ccccc2)CC1=O)Nc1ccc(F)cc1 (centres undefined)"
  endpoint: "viability increase"
  measured.value: -3.89
- compound: "CCOC(=O)C(C)Oc1cc(C)cc2oc(=O)c3c(c12)CCCC3 (centres undefined)"
  endpoint: "viability increase"
  measured.value: -4.65
- compound: "C=C(C)c1cccc(C(C)(C)NC(=O)NC2CN3CCC2CC3)c1 (centres undefined)"
  endpoint: "viability increase"
  measured.value: -1.24
- compound: "CC(C)NS(=O)(=O)c1ccc(OCC(=O)N2CCN(C)CC2)cc1"
  endpoint: "viability increase"
  measured.value: -0.3
- compound: "Cc1ccc(CC2C(=O)N(C)C(=O)N(C)C2=O)s1"
  endpoint: "viability increase"
  measured.value: 0.21
- compound: "O=C1c2ccccc2C(=O)N1Cc1nc2ccccc2c(=O)n1-c1ccc(Br)cn1"
  endpoint: "viability increase"
  measured.value: 0.3
- compound: "COC(=O)c1ccc(CN2CCN(Cc3ccccc3)CC2)cc1"
  endpoint: "viability increase"
  measured.value: -1.15
- compound: "Cc1cccnc1-n1c(-c2ccco2)nc2ccccc2c1=O"
  endpoint: "viability increase"
  measured.value: -0.56
- compound: "CC1(C)CC(n2[nH]c(=O)c3c2NC(=O)CSC3c2ccc(F)cc2)CCO1 (centres undefined)"
  endpoint: "viability increase"
  measured.value: -2.67
- compound: "COc1ccc(C2C(C(=O)N3CCC4(CC3)OCCO4)c3cc(OC)c(OC)cc3C(=O)N2C)cc1 (centres undefined)"
  endpoint: "viability increase"
  measured.value: -2.58
- compound: "Cc1cc(OC(=O)c2ccco2)c2c3c(c(=O)oc2c1)CCC3"
  endpoint: "viability increase"
  measured.value: -1.26
- compound: "CCCCCCn1c(=O)c(C(=O)Nc2ccncc2)c(O)c2ccccc21"
  endpoint: "viability increase"
  measured.value: -7.48
- compound: "O=c1c2ccccc2nc(-c2ccco2)n1-c1ccncc1"
  endpoint: "viability increase"
  measured.value: 0.16
- compound: "Nc1ccccc1C(=O)c1ccccc1"
  endpoint: "viability increase"
  measured.value: -1.42
- compound: "COC(=NC1CCCC1)C(O)c1c[nH]c2ccccc12 (centres undefined)"
  endpoint: "viability increase"
  measured.value: -4.16
- compound: "O=C(CN1CC(c2ccccc2)CC1=O)Nc1ccccc1 (centres undefined)"
  endpoint: "viability increase"
  measured.value: -1.8
- compound: "CCCCCn1c(=O)c(C(=O)Nc2ccncc2)c(O)c2ccccc21"
  endpoint: "viability increase"
  measured.value: -8.28
- compound: "O=c1cccc2n1CC1CC2CN(Cc2ccc3c(c2)OCO3)C1 (centres undefined)"
  endpoint: "viability increase"
  measured.value: -2.71
- compound: "C[C@H]1CCCC(=O)CCC/C=C/c2cc(O)cc(O)c2C(=O)O1"
  endpoint: "viability increase"
  measured.value: -6.31
- compound: "O=C(c1ccccc1)c1cn(CC(=O)N2CCCC2)c2ccccc12"
  endpoint: "viability increase"
  measured.value: -1.14
- compound: "Cn1c(O)c(C=NCCc2c[nH]c3ccccc23)c(=O)n(C)c1=O"
  endpoint: "viability increase"
  measured.value: -2.67
- compound: "CN(C)C(=O)Oc1ccc(OC(=O)N(C)C)cc1"
  endpoint: "viability increase"
  measured.value: 0.6
- compound: "Cc1ccc2c(c1)C1CN(C)CCC1N2C(=O)Cn1nnc(-c2ccccc2F)n1 (centres undefined)"
  endpoint: "viability increase"
  measured.value: -5.58
- compound: "CN1C(=O)C(Cc2cccc3ccccc23)C(=O)N(C)C1=O"
  endpoint: "viability increase"
  measured.value: -2.39
- compound: "O=C(O)C1CSC(c2cccnc2)N1 (centres undefined)"
  endpoint: "viability increase"
  measured.value: -1.05
- compound: "Cc1ccc2c(c1)C1CN(C)CCC1N2C(=O)c1ccco1 (centres undefined)"
  endpoint: "viability increase"
  measured.value: -3.67
- compound: "CCCCCP(=O)(O)c1ccccc1"
  endpoint: "viability increase"
  measured.value: -1.16
- compound: "c1ccc2sc(C3CCCNC3)nc2c1 (centres undefined)"
  endpoint: "viability increase"
  measured.value: -1.16
- compound: "CC1(C)CN=C(Nc2ccc(F)c(F)c2)S1"
  endpoint: "viability increase"
  measured.value: 0.98
